Reported values of IC50, CGRP-induced cAMP production, L6 cells for individual entries
EXPERIMENTAL_SYSTEM: T1, rat beta CGRP (SEQ ID NO: 83) (rat, not fully specified)
T1 peptide: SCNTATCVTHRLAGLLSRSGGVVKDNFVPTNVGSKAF
ASSAY_NAME: cell-based or functional assay
Respond with the bare value in nM.

Please review the following examples before continuing.
[
  {
    "BINDER": "lipocalin mutein SEQ ID NO: 14 (designed binder, biotinylated by NHS chemistry for capture in SPR) QDSTSDLIPAPPLSKVPLQQNFQDNQFHGKWYVVGRAGNDALREDKDPEKMEATIYELKEDKSYNVTDVGFVQKKCMYVIHTFVPGSQPGEFTLGNIKSYPGVTSALVRVVSTNYNQHAMVFFKLVKQNRELFEITLYGRTKELTSELKENFIRFSKSLGLPENHIVFPVPIDQCIDGSAWSHPQFEK",
    "ASSAY_RESULT": 0.09
  },
  {
    "BINDER": "lipocalin mutein SEQ ID NO: 23 (designed binder, biotinylated by NHS chemistry for capture in SPR) QDSTSDLIPAPPLSKVPLQQNFQDNQFHGKWYVVGWAGNTLLREDKDPIKMQAKIYELKEDRSYNVTWVYFADKKCNYHIETFVPGSQPGEFTLGLIKSYPGETPILVRVVSTNYNQHAMVFFKGVNQNREIFEIILYGRTKELTNELKENFIRFSKSLGLPENHIVFPVPIDQCIDGSAWSHPQFEK",
    "ASSAY_RESULT": 0.17
  },
  {
    "BINDER": "lipocalin mutein SEQ ID NO: 11 (designed binder, biotinylated by NHS chemistry for capture in SPR) QDSTSDLIPAPPLSKVPLQQNFQDNQFHGKWYVVGWAGNTLLREDKDPIKMQAIIYELKEDRSYNVTWVYFSEKKCNYHIETFVPGSQPGEFTLGTIKSYPGETPILVRVVSTNYNQHAMVFFKGVNQNREIFEIILYGRTKELTNELKENFIRFSKSLGLPENHIVFPVPIDQCIDGSAWSHPQFEK",
    "ASSAY_RESULT": 0.06
  },
  {
    "BINDER": "lipocalin mutein SEQ ID NO: 20 (designed binder, biotinylated by NHS chemistry for capture in SPR) QDSTSDLIPAPPLSKVPLQQNFQDNQFHGKWYVVGRAGNDTLRKDKDPEKMEATIYELKEDKSYNVTDVGFVQKKCMYVIHTFVPGSQPGEFTLGNIKSYPGVTSALVRVVSTNYNQHAMVFVKLVKQNRELFEITLYGRTKELTSELKENFIRFSKSLGLPENHIVFPVPIDQCIDGSAWSHPQFEK",
    "ASSAY_RESULT": 0.11
  },
  {
    "BINDER": "lipocalin mutein SEQ ID NO: 18 (designed binder) QDSTSDLIPAPPLSKVPLQQNFQDNQFHGKWYVVGRAANDVLRDDNDPEKMEATIYELKEDKSYNVTDVGFVQKKCMYVVHTFVPGSQPGEFTLGNIKSYPGVTSALVRVVSTNYNQHAMVFFKLVKQNRELFEVTLYGRTKELTSELKENFIRFSKSLGLPENHIVFPVPIDQCIDGSAWSHPQFEK",
    "ASSAY_RESULT": 0.14
  },
  {
    "BINDER": "lipocalin mutein SEQ ID NO: 26 (designed binder, biotinylated by NHS chemistry for capture in SPR) QDSTSDLIPAPPLSKVPLQQNFQDNQFHGKWYVVGWAGNTLLREDKDPIKMQAKIYELKEDRSYNVTWVYFADKKCRYHIETFVPGSQPGEFTLGTIKSHPGETPILVRVVSTNYNQHAMVFFKGVNQNREIFEIILYGRTKELTNELKENFIRFSKSLGLPENHIVFPVPIDQCIDGSAWSHPQFEK",
    "ASSAY_RESULT": 0.16
  },
  {
    "BINDER": "lipocalin mutein SEQ ID NO: 17 (designed binder, biotinylated by NHS chemistry for capture in SPR) QDSTSDLIPAPPLSKVPLQQNFQDNQFHGKWYVVGRAGNDVLREDKDPEKMEATIYELKEDKSYNVTDVGFVQKRCMYVTHTFVPGSQPGEFTLGNIESYPGVTSALVRVVSTDYNQHAMVFVKLVKQNRELFEITLYGRTKELTSELKENFIRFSKSLGLPENHIVFPVPIDQCIDGSAWSHPQFEK",
    "ASSAY_RESULT": 0.11
  },
  {
    "BINDER": "lipocalin mutein SEQ ID NO: 25 (designed binder, biotinylated by NHS chemistry for capture in SPR) QDSTSDLIPAPPLSKVPLQQNFQDNQFHGKWYVVGWAGNTLLREDKDPIKMQAKIYELKEDRSYNVTWVYFADKKCNYHIETFVPGSQPGEFTLGTIKSYPGETPILVRVVSTNYNQHAMVFFKGVNQNREIFEIILYGRTKELTNELKENFIRFSKSLGLPENHIVFPVPIDQCIDGSAWSHPQFEK",
    "ASSAY_RESULT": 0.16
  },
  {
    "BINDER": "lipocalin mutein SEQ ID NO: 19 (designed binder, biotinylated by NHS chemistry for capture in SPR) QDSTSDLIPAPPLSKVPLQQNFQDNQFHGKWYVVGRAGNDTLREDKDPEKMEATIYELKEDKSYNVTDVGLVQKKCMYVIHTFVPGSQPGEFTLGNIKSYPGVTSALVRVVSTNYNQHAMVFVKLVKQSRELFEITLYGRTKELTSELKENFIRFSKSLGLPENHIVFPVPIDQCIDGSAWSHPQFEK",
    "ASSAY_RESULT": 0.17
  }
]

Request: What does the data say about its IC50, CGRP-induced cAMP production, L6 cells? Entry: lipocalin mutein SEQ ID NO: 24 (designed binder, biotinylated by NHS chemistry for capture in SPR) QDSTSDLIPAPPLSKVPLQQNFQDNQFHGKWYVVGWAGNTLLREDKDPIKMQAKIYELKEDRSYNVTWVYFAEKKCNYHIETFVPGSQPGEFTLGTIKSYPGETPILVRVVSTNYNQHAMVFFKGVNQNREIFEIILYGRTKELTNELKENFIRFSKSLGLPENHIVFPVPIDQCIDGSAWSHPQFEK
Result: 0.16
